Cited source for all entries: PubChem BioAssay (NCI)

Test system: DU-145 prostate
MEASUREMENT DESCRIPTION: NCI-60 one-dose screen, 48 h (100 = growth as untreated, 0 = no growth, -100 = all killed)
EXPERIMENTAL SETUP: 10 µM unless noted
The panel holds about 83,000 compounds, 20% with a hit somewhere; the sample as a whole holds those more often. Calls of active or inactive are those of the source. Rule for the calls: active = growth percent below 10; inactive = the rest.
# maps each entry to its growth

As a guide, the following entries are already answered.
| COMPOUND | ASSAY READOUT | READING |
| --- | --- | --- |
| NC(=O)C(=O)c1ccccc1NC=O | growth | 106% (inactive) |
| C=CCSc1nnc(NC(=O)CCl)s1 | growth | 87.4% (inactive) |
| CCN(CC)CCn1c2ccc(OC)cc2c2sc3cc(OC)ccc3c(=O)c21 | growth | 44.9% (inactive) |
| Cc1c(-c2ccc(O)cc2)n(Cc2ccc(OCCN3CCCCCC3)cc2)c2ccc(O)cc12 | growth | 87% (inactive) |
| CC(C)c1ccc(C(=O)Nc2nc3ccc(O)c(CN(C)C)c3s2)cc1 | growth | 63.1% (inactive) |
| Cc1ccc(/C=C2\COc3ccc(O)cc3C2=O)cc1 | growth | 103% (inactive) |
| Cc1nc2sc(C(=O)Nc3ccc(Br)cc3)c(N)c2cc1C(O)c1ccccc1 (stereo unspecified) | growth | 81.7% (inactive) |
| O=[N+]([O-])c1cccc(-c2nc3cc4nc5ccccc5[nH]c4cc3n2)c1 | growth | 106% (inactive) |

Exercise: Recall the recorded growth for CCCCn1c(=O)[nH]c(N)c([C@@H]2c3c([nH]c(=O)n(CCCC)c3=O)Oc3ccc4ccccc4c32)c1=O with DU-145 prostate and state it.
Solution: 47.5% (inactive)

Exercise: Next up: O=C1/C(=C\c2ccc3nccnc3c2)SC(=S)N1CCc1ccc(O)cc1
Solution: 59.6% (inactive)

Exercise: Now try O=C(/C=C/c1ccccc1)Nc1ncc(Cc2ccccc2Cl)s1 .
Solution: 26.9% (inactive)

Exercise: Note, next up: C=C1C(=O)O[C@H]2[C@H]1CC/C(COC(=O)NCc1ccc(Cn3c(=O)sn(CCCCC)c3=O)cc1)=C\CC[C@@]1(C)O[C@@H]21
Solution: 9.23% (active)

Exercise: Note, next up: CC/C(=C(/c1ccc(Cl)cc1)c1ccc(OCCN2CCCCC2)cc1)c1ccc(OC)cc1
Solution: 82.8% (inactive)

Exercise: Another compound: COc1ccccc1CNc1c2ccccc2nc2ccccc12
Solution: 50.5% (inactive)

Exercise: Now consider O=C(/C=C/c1cccc(Cl)c1)c1ccc(Nc2nc(Nc3ccc(F)cc3)nc(Nc3ccc(Cl)cc3)n2)cc1 and answer again.
Solution: 162% (inactive)

###

growth: recorded values
Tested on: COLO 205 colon
MEASUREMENT DESCRIPTION: NCI-60 one-dose screen, 48 h (100 = growth as untreated, 0 = no growth, -100 = all killed)
EXPERIMENTAL SETUP: 10 µM unless noted
Compounds without any hit were thinned out: in the full panel of roughly 83,000, 20% have a hit. Active and inactive are the calls of the source. Rule for the calls: active = growth percent below 10; inactive = the rest.

Exercise: Consider the molecule shown here: CN(/C(N)=N/N=C/c1c2ccccc2cc2ccccc12)C1CCCCC1 What is its recorded growth?
Solution: -55.5% (active)

Exercise: Same question for c1csc(-c2ccc(CNc3c4ccccc4nc4ccccc34)cc2)c1 please.
Solution: 5.13% (active)

Exercise: Now the same for COc1ccc(/C=C(\C#N)n2nnc3ccc(Cl)cc32)cc1
Solution: 83.1% (inactive)
